biological target: ACAT (Mus musculus, UniProt Q61263); construct: endogenous in cells; assay: Test for ACAT inhibitory activity in J774A cells (cholesterol ester production)
Sequence (Q61263 whole entry): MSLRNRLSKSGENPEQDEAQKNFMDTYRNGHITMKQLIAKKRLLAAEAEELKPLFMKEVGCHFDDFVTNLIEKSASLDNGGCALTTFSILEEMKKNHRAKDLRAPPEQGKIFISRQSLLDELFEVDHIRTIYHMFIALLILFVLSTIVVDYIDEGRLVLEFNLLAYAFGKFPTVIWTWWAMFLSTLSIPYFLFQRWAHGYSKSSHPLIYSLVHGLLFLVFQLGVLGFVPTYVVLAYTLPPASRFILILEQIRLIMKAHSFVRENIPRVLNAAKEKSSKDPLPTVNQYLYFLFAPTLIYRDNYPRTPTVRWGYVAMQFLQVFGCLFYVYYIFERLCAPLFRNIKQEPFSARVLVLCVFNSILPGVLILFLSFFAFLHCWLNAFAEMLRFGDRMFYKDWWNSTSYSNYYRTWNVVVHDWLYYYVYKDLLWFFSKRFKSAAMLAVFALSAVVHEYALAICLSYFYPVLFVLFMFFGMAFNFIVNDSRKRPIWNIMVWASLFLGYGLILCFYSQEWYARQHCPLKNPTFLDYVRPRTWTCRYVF
pIC50: −log10 of the molar value.
measure: pIC50

> print(dat)
                                   compound                    measurementtarget  measurement
1  Cc1cc(OCC(F)(F)F)c(NC(=O)CN2CCN(CCSc3nc4cc(F)c(F)cc4[nH]3)CC2)c(OCC(F)(F)F)n1 [Compound (1b)]  ACAT (Mus musculus, UniProt Q61263)         7.12
2  Cc1cc(OCC(F)(F)F)c(NC(=O)CN2CCN(CCSc3nc4ccc(F)cc4[nH]3)CC2)c(OCC(F)(F)F)n1 [Compound (1a)]  ACAT (Mus musculus, UniProt Q61263)         7.06

Numbers sourced from patent US7223764B2.
